inhibition values for the molecules below.
molecular target: Sterol O-acyltransferase 1 (Rattus norvegicus) (UniProt O70536); experiment: In vitro percentage inhibition against acyl coenzyme A:cholesterol acyltransferase derived from rat adrenals; parameters: concentration or dose not given beside the values; conditions: concentration not given here
valueType: inhibition (%)

> print(dat)
                             smilesstructure                           targetundertest  valueobserved
 1                 CCCCN(CCCC)C(=O)Nc1ccccc1  Sterol O-acyltransferase 1 (Rattus norvegicus) (UniProt O70536)             64
 2  CC(=O)c1cccc(NC(=O)N(Cc2ccccc2)Cc2ccccc2)c1  Sterol O-acyltransferase 1 (Rattus norvegicus) (UniProt O70536)             81
 3      CCCCN(Cc1ccccc1)C(=O)Nc1cc(Cl)ccc1OC  Sterol O-acyltransferase 1 (Rattus norvegicus) (UniProt O70536)             81
 4           CCCCN(CCCC)C(=O)Nc1cc(C)cc(C)c1  Sterol O-acyltransferase 1 (Rattus norvegicus) (UniProt O70536)             84
 5    Cc1ccc(NC(=O)N(Cc2ccccc2)Cc2ccccc2)cc1  Sterol O-acyltransferase 1 (Rattus norvegicus) (UniProt O70536)             87
 6        CCCCN(Cc1ccccc1)C(=O)Nc1cccc(C)c1C  Sterol O-acyltransferase 1 (Rattus norvegicus) (UniProt O70536)             86
 7         CCCCN(CCCC)C(=O)Nc1cc(Cl)cc(Cl)c1  Sterol O-acyltransferase 1 (Rattus norvegicus) (UniProt O70536)             79
 8   COc1ccc(NC(=O)N(Cc2ccccc2)Cc2ccccc2)cc1  Sterol O-acyltransferase 1 (Rattus norvegicus) (UniProt O70536)             72
 9           CCCCc1ccc(NC(=O)N(CCCC)CCCC)cc1  Sterol O-acyltransferase 1 (Rattus norvegicus) (UniProt O70536)             94
10  O=C(O)c1ccc(NC(=O)N(Cc2ccccc2)Cc2ccccc2)cc1  Sterol O-acyltransferase 1 (Rattus norvegicus) (UniProt O70536)             14
11   O=C(Nc1ccc(Cl)cc1)N(Cc1ccccc1)Cc1ccccc1  Sterol O-acyltransferase 1 (Rattus norvegicus) (UniProt O70536)             78
12   O=C(Nc1cccc(Cl)c1)N(Cc1ccccc1)Cc1ccccc1  Sterol O-acyltransferase 1 (Rattus norvegicus) (UniProt O70536)             94

###

Target: Sterol O-acyltransferase 1 (Rattus norvegicus, UniProt O70536)
Sequence (O70536 whole entry): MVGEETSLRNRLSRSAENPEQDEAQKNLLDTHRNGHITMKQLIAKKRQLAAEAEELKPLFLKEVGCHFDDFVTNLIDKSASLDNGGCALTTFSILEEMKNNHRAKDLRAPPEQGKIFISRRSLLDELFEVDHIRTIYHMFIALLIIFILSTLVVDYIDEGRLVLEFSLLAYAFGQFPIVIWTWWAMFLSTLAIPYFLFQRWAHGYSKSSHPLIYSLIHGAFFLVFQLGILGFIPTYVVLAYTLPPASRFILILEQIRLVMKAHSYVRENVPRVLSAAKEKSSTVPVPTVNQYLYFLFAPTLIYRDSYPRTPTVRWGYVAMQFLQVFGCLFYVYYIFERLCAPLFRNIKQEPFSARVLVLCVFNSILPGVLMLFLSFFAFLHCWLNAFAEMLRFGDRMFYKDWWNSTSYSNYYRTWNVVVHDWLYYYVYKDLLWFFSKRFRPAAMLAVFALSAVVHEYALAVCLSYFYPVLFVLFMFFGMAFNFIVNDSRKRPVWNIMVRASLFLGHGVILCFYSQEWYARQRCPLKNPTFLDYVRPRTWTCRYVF
Test: In vitro inhibitory concentration against Acyl coenzyme A:cholesterol acyltransferase derived from rat adrenals
pIC50: −log10 of the molar value.
pIC50 values for the molecules below.
valueType: pIC50

> print(dat)
                             smilesstructure  valueobserved
 1  Cc1ccc(NC(=O)N(Cc2ccccc2)Cc2ccccc2)cc1Cl           4.72
 2  CCCCCCCN(Cc1ccco1)C(=O)Nc1c(Cl)cc(Cl)cc1Cl           6.39
 3  Cc1cc(Cl)ccc1NC(=O)N(Cc1ccccc1)Cc1ccccc1           5.47
 4       CCCCCCCN(CCCCCCC)C(=O)Nc1ccc(C)cc1C           6.14
 5  O=C(Nc1cccc(C(F)(F)F)c1)N(Cc1ccccc1)Cc1ccccc1           5.54
 6  Cc1c(Cl)cccc1NC(=O)N(Cc1ccccc1)Cc1ccccc1           5.08
 7       CCCCN(Cc1ccccc1)C(=O)Nc1ccc(Cl)cc1C           5.12
 8  O=C(Nc1cc(Cl)cc(Cl)c1)N(Cc1ccccc1)Cc1ccccc1           5.40
 9  Cc1cc(C)c(NC(=O)N(Cc2ccccc2)Cc2ccccc2)c(C)c1           5.43
10  CCCCCCCCCCN(CCCCCCCCCC)C(=O)Nc1ccc(C)cc1C           6.20
11  CCCCCCCN(Cc1cccs1)C(=O)Nc1cc(Cl)c(Cl)cc1Cl           6.32
12  Cc1cc(C)c(NC(=O)N(Cc2ccccc2)Cc2ccccc2)cc1C           6.35
13         CCCCCCN(CCCCCC)C(=O)Nc1ccc(C)cc1C           6.48
